Biological target: UniProtKB O14842
Experiment: Agonist activity at human FFA1 expressed in CHO cells assessed as increase in intracellular Ca2+ flux at 1 uM measured for 90 secs by Fluo4-AM dye based FLIPR assay relative to control
Format: functional, cell-based
Could you please classify the records by Activity using these ranges: low value = under 20%, medium value = from 20% up to 30%, high value = 30% and over

Reference set, count: 2
>  <molecule>
Cc1ccccc1C(=O)Nc1ccc(CCC(=O)O)cc1

>  <assigned.class>
low value

$$$$
>  <molecule>
O=C(O)CCc1ccc(NC(=O)c2ccsc2)cc1

>  <assigned.class>
low value

$$$$

QUERY: In plain terms, what class is `O=C(O)c1ccc(NC(=O)c2ccc(C(=O)c3ccccc3)cc2)cc1` ?
RESULT: low value

QUERY: In plain terms, what class is `Cc1ccc(C(=O)Nc2ccc(CCC(=O)O)cc2)cc1` ?
RESULT: low value

QUERY: In plain terms, what class is `O=C(O)CCc1ccc(NC(=O)c2ccccc2)cc1` ?
RESULT: low value

QUERY: In plain terms, what class is `CC(C)(C)c1ccc(C(=O)Nc2ccc(CCC(=O)O)cc2)cc1` ?
RESULT: medium value

QUERY: In plain terms, what class is `O=C(O)CCc1ccc(NC(=O)c2cccnc2)cc1` ?
RESULT: low value

QUERY: In plain terms, what class is `O=C(O)CCc1ccc(NC(=O)c2cccc(Oc3ccccc3)c2)cc1` ?
RESULT: high value

QUERY: In plain terms, what class is `Cc1cccc(C)c1-c1cccc(C(=O)Nc2ccc(CCC(=O)O)cc2)c1` ?
RESULT: high value

QUERY: In plain terms, what class is Cc1cc(OCCCS(C)(=O)=O)cc(C)c1-c1cccc(COc2ccc3c(c2)OC[C@H]3CC(=O)O)c1 [FASIGLIFAM] ?
RESULT: high value

QUERY: In plain terms, what class is `O=C(O)CCc1ccc(NC(=O)c2cccc(Cl)c2)cc1` ?
RESULT: medium value

---

Target: Free fatty acid receptor 1 (Homo sapiens)
Sequence (O14842 whole entry): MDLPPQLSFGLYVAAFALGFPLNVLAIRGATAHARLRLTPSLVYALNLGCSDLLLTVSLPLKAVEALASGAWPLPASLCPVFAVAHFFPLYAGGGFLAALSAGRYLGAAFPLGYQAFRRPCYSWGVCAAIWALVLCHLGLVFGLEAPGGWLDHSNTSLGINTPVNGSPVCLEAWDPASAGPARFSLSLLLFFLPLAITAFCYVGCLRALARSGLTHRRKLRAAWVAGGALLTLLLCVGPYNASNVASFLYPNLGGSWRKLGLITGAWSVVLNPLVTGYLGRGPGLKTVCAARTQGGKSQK
Test: Agonist activity at FFA1 (unknown origin)
measurement.kind: pEC50
Scale for pEC50: -log10 of concentration given in mol/L; no unit attached.

For this compound ( `CC#C[C@@H](CC(=O)O)c1ccc(NC(=O)C(=O)Nc2cccc(C(C)(C)C)c2)cc1` ), measured pEC50 is 8.40

---

Target: Free fatty acid receptor 1 (Homo sapiens)
Assay: Agonist activity at human FFA1 expressed in CHO cells assessed as increase in intracellular Ca2+ flux at 1 uM measured for 90 secs by Fluo4-AM dye based FLIPR assay relative to control
Type: functional, cell-based
Response key: yes (1) means Activity >= 20%; no (0) means Activity < 20%.

Reference set, count: 4
>  <molecule>
O=C(O)CCc1ccc(NCc2cccc(Oc3ccccc3)c2)cc1

>  <assigned.class>
yes (1)

$$$$
>  <molecule>
O=C(O)CCc1ccc(NC(=O)c2ccccc2Cl)cc1

>  <assigned.class>
no (0)

$$$$
>  <molecule>
O=C(O)CCc1ccc(NC(=O)c2ccc(Cl)cc2)cc1

>  <assigned.class>
no (0)

$$$$
>  <molecule>
O=C(O)CCc1ccc(NC(=O)c2ccccc2[N+](=O)[O-])cc1

>  <assigned.class>
no (0)

$$$$

QUERY: I'd appreciate it if you could say whether `O=C(O)CCc1ccc(NC(=O)c2cccs2)cc1` has Activity at least equal to 20%.
RESULT: no (0)

QUERY: I'd appreciate it if you could say whether `COc1ccccc1C(=O)Nc1ccc(CCC(=O)O)cc1` has Activity at least equal to 20%.
RESULT: no (0)
